- Test system: Saccharomyces cerevisiae;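 also: PSI is a weighted mean of each variant's read distribution over the sorted stability bins, computed only for variants having over 10 reads in total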
- Assay Remarks: protein stability index of tFT-peptide fusion in deletion strain of DAS1 (PSI (0-1 scale)); higher = more stable (slower turnover)
Experimental Readout: protein stability index
Note: the reply should be a number with no unit written.

Recorded protein stability index, per entry:
PSLAASFWRVVGH | 0.707
CTSCGYKFRMNN | 0.686
DVVYLSCVACIN | 0.0312
WSLAASFWRVVG | 0.668
LKILRQEMNHQN | 0.672
FTSCGYKFRTNN | 0.676

Which measured protein stability index value corresponds to `RWIQPLPVQFLN` ? 0.686

// query: `RLIQTLPVQFLN` 0.594
